molecular target: UniProtKB P08684
Sequence (P08684 whole entry): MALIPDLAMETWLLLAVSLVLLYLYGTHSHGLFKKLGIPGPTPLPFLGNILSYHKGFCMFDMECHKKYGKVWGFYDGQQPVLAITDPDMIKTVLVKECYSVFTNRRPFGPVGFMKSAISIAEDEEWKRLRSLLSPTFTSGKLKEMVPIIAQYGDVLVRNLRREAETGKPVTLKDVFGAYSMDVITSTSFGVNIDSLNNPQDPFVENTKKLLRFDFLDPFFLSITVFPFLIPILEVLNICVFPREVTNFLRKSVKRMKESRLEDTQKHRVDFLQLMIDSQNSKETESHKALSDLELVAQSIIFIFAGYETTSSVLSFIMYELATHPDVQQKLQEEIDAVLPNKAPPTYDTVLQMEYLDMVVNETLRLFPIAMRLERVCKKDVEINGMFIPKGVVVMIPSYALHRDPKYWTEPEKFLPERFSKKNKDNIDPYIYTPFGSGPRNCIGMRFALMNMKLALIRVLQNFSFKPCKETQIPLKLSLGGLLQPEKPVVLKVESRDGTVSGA
pIC50: −log10 of the molar value.
experimental endpoint: pIC50

compound: N#Cc1cnc(Nc2cc(NCC3CNCCO3)c(C(F)(F)F)cn2)cn1 (stereo not shown) [SRA737]
experimental endpoint: pIC50
meas value: 4.30 to 5.00

* * *

assay: Phase 1 clinical trial, SRA737 monotherapy dose escalation; type: in vivo, human; conditions: human, in vivo, 300 mg, AUC0-24

molecule: N#Cc1cnc(Nc2cc(NCC3CNCCO3)c(C(F)(F)F)cn2)cn1 (stereo not shown)
units of measure: ng·h/mL
AUC(0-t): 3150

* * *

assay: Single dose PK, monkey; assay type: in vivo; conditions: in vivo; monkey; oral 2 and 10 mg/kg; read-out: absolute oral bioavailability (% F)

molecule: N#Cc1cnc(Nc2cc(NCC3CNCCO3)c(C(F)(F)F)cn2)cn1 (stereo not shown)
bioavailability: 90 to 104%

* * *

assay: GLP 28-day repeat oral dose toxicity and toxicokinetics, mouse; conditions: female, mouse, in vivo, po, 10 mg/kg/day

compound: N#Cc1cnc(Nc2cc(NCC3CNCCO3)c(C(F)(F)F)cn2)cn1 (stereo not shown)
Cmax, ng/mL: 918

* * *

assay: Phase 1 clinical trial, SRA737 monotherapy dose escalation; format: in vivo, human; conditions: human, in vivo, 1000 mg, T1/2
experimental endpoint: half-life (h)

molecule: N#Cc1cnc(Nc2cc(NCC3CNCCO3)c(C(F)(F)F)cn2)cn1 (stereo not shown) [SRA737]
meas value: 11

* * *

test: Phase 1 clinical trial, SRA737 monotherapy dose escalation; assay type: in vivo, human; conditions: human, in vivo, half-life
experimental endpoint: half-life

compound: N#Cc1cnc(Nc2cc(NCC3CNCCO3)c(C(F)(F)F)cn2)cn1 (stereo not shown)
experimental endpoint: half-life
meas value: ~10 h

* * *

experiment: Phase 1 clinical trial, SRA737 monotherapy dose escalation; assay type: in vivo, human; conditions: human, in vivo, 800 mg, Tmax
experimental endpoint: Tmax (h)

molecule: N#Cc1cnc(Nc2cc(NCC3CNCCO3)c(C(F)(F)F)cn2)cn1 (stereo not shown) [SRA737]
experimental endpoint: Tmax
units of measure: h
meas value: 3.3

* * *

Test: Phase 1 clinical trial, SRA737 in combination with gemcitabine dose escalation
Format: in vivo, human
Details: human, plasma, oral, 40 mg; Day 10; mean, n = 4
Method: A Phase 1 clinical trial was conducted in ‘all corners,’ i.e. no genetic selection was performed, to establish safety, tolerability and pharmacokinetics for SRA737 administered in combination with gemcitabine (“Dose Escalation Phase”). […] At this dose, the Cmin (52 ng/mL) exceeded that determined in preclinical models to be effective. Additional cohorts are monitored escalating the dose of SRA737 until the maximum tolerated dose (MTD) is identified and to optimize combination dosing with gemcitabine. […]

compound: N#Cc1cnc(Nc2cc(NCC3CNCCO3)c(C(F)(F)F)cn2)cn1 (stereo not shown)
Tmax, h: 1.8

* * *

assay: Phase 1 clinical trial, SRA737 in combination with gemcitabine dose escalation; type: in vivo, human; conditions: human, plasma, oral, 150 mg; Day −7; mean, n = 4
experimental endpoint: Cmax (ng/mL)

molecule: N#Cc1cnc(Nc2cc(NCC3CNCCO3)c(C(F)(F)F)cn2)cn1 (stereo not shown)
units of measure: ng/mL
meas value: 548

* * *

assay: Phase 1 clinical trial, SRA737 in combination with gemcitabine dose escalation; assay type: in vivo, human; settings: human, plasma, oral; 500 mg; Day −7; mean, n = 29

compound: N#Cc1cnc(Nc2cc(NCC3CNCCO3)c(C(F)(F)F)cn2)cn1 (stereo not shown)
half-life (h): 11.8

* * *

assay: Single dose PK, monkey; format: in vivo; details: in vivo; Monkey oral 10 mg/kg single dose

molecule: N#Cc1cnc(Nc2cc(NCC3CNCCO3)c(C(F)(F)F)cn2)cn1 (stereo not shown)
units of measure: ng/mL
Cmax: 2640

* * *

assay: GLP 28-day repeat oral dose toxicity and toxicokinetics, mouse; details: female, mouse, in vivo, po, 40 mg/kg/day
experimental endpoint: Cmax at 28 days (ng/mL)

compound: N#Cc1cnc(Nc2cc(NCC3CNCCO3)c(C(F)(F)F)cn2)cn1 (stereo not shown)
experimental endpoint: Cmax at 28 days
units of measure: ng/mL
meas value: 2350

* * *

assay: Phase 1 clinical trial, SRA737 monotherapy dose escalation; assay type: in vivo, human; conditions: human, in vivo, 160 mg, AUC0-24

molecule: N#Cc1cnc(Nc2cc(NCC3CNCCO3)c(C(F)(F)F)cn2)cn1 (stereo not shown) [SRA737]
AUC(0-t) / ng·h/mL: 1620

* * *

assay: GLP 28-day repeat oral dose toxicity and toxicokinetics, mouse; conditions: male, mouse, in vivo, po, 75 mg/kg/day

compound: N#Cc1cnc(Nc2cc(NCC3CNCCO3)c(C(F)(F)F)cn2)cn1 (stereo not shown)
AUC(0-t) [µg·h/mL]: 68.6

* * *

test: GLP 28-day repeat oral dose toxicity and toxicokinetics, monkey; type: in vivo; conditions: in vivo, po; Monkey Female; 20 mg/kg/day (NOAEL), daily dosing for 28 days
experimental endpoint: AUC(0-t) (ng·h/mL)

molecule: N#Cc1cnc(Nc2cc(NCC3CNCCO3)c(C(F)(F)F)cn2)cn1 (stereo not shown)
units of measure: ng·h/mL
meas value: 24200

* * *

assay: GLP 28-day repeat oral dose toxicity and toxicokinetics, mouse; conditions: male, mouse, in vivo, po, 75 mg/kg/day

compound: N#Cc1cnc(Nc2cc(NCC3CNCCO3)c(C(F)(F)F)cn2)cn1 (stereo not shown) [SRA737]
Cmax / ng/mL: 5450

* * *

assay: Phase 1 clinical trial, SRA737 monotherapy dose escalation; format: in vivo, human; conditions: human, in vivo, 40 mg, T1/2

compound: N#Cc1cnc(Nc2cc(NCC3CNCCO3)c(C(F)(F)F)cn2)cn1 (stereo not shown)
units of measure: h
half-life: 9.85

* * *

test: Single dose PK, mouse; assay type: in vivo; conditions: in vivo; Mouse IV 10 mg/kg single dose

molecule: N#Cc1cnc(Nc2cc(NCC3CNCCO3)c(C(F)(F)F)cn2)cn1 (stereo not shown) [SRA737]
units of measure: h
half-life: 2.9

* * *

experiment: SRA737 plasma and tumor concentrations in HT29 xenograft model; format: in vivo, mouse; details: mouse, plasma, oral, 12.5 mg/kg; at 24 hours; approximate; read-out: minimum (total) plasma concentration corresponding to inhibition of pS296 Chk1

compound: N#Cc1cnc(Nc2cc(NCC3CNCCO3)c(C(F)(F)F)cn2)cn1 (stereo not shown)
concentration at 24 h: ~0.1 µM

* * *

assay: GLP 28-day repeat oral dose toxicity and toxicokinetics, monkey; type: in vivo; conditions: in vivo, po; Monkey Male; 2 mg/kg/day, daily dosing for 28 days
experimental endpoint: Cmax (ng/mL)

compound: N#Cc1cnc(Nc2cc(NCC3CNCCO3)c(C(F)(F)F)cn2)cn1 (stereo not shown) [SRA737]
units of measure: ng/mL
meas value: 365

* * *

experiment: Phase 1 clinical trial, SRA737 monotherapy dose escalation; format: in vivo, human; details: human, in vivo, 1300 mg, Tmax

molecule: N#Cc1cnc(Nc2cc(NCC3CNCCO3)c(C(F)(F)F)cn2)cn1 (stereo not shown)
units of measure: h
Tmax: 2.7

* * *

Experiment: SRA737 plasma and tumor concentrations in HT29 xenograft model
Type: in vivo, mouse
Settings: mouse, plasma, oral, 6.25 mg/kg; read-out: Plasma (24 h) concentration
Protocol: For each dose, columns from left to right are concentrations for plasma at 6 hours, plasma at 24 hours, tumor at 6 hours, and tumor at 24 hours, respectively. The effect of SRA737 on Gemcitabine induced CHK1 S296 autophosphorylation was assessed as described in Walton et al. (Oncotarget. 2016 Jan. 19; 7(3): 2329-2342), herein incorporated by reference for all it teaches. […]

molecule: N#Cc1cnc(Nc2cc(NCC3CNCCO3)c(C(F)(F)F)cn2)cn1 (stereo not shown)
units of measure: nM
concentration at 24 h: 13.1

* * *

assay: Phase 1 clinical trial, SRA737 monotherapy dose escalation; assay type: in vivo, human; conditions: human, in vivo, 600 mg, Cmax

molecule: N#Cc1cnc(Nc2cc(NCC3CNCCO3)c(C(F)(F)F)cn2)cn1 (stereo not shown) [SRA737]
Cmax: 998 ng/mL

* * *

assay: Single dose PK, rat; assay type: in vivo; conditions: in vivo; Rat oral 10 mg/kg single dose

compound: N#Cc1cnc(Nc2cc(NCC3CNCCO3)c(C(F)(F)F)cn2)cn1 (stereo not shown) [SRA737]
half-life (h): 4.6

* * *

assay: Single dose PK, monkey; type: in vivo; conditions: in vivo; Monkey oral 2 mg/kg single dose
experimental endpoint: Cmax (ng/mL)

molecule: N#Cc1cnc(Nc2cc(NCC3CNCCO3)c(C(F)(F)F)cn2)cn1 (stereo not shown)
experimental endpoint: Cmax
meas value: 500

* * *

experiment: Phase 1 clinical trial, SRA737 monotherapy dose escalation; type: in vivo, human; conditions: human, in vivo, 1000 mg, AUC0-24
experimental endpoint: AUC(0-t) (ng·h/mL)

compound: N#Cc1cnc(Nc2cc(NCC3CNCCO3)c(C(F)(F)F)cn2)cn1 (stereo not shown)
meas value: 26800

Cited source for all entries: patent US20200397796A1
